- MEASUREMENT PROTOCOL: Resmetirom exposure parameters by dose, quartile and body weight
- Type: in vivo, human
- RUN PARAMETERS: human, in vivo, oral, 100 mg; ≥110 kg; read-out: Cmax,ss Median
PROPERTY MEASURED: Cmax (ng/mL)
// units = ng/mL; emit number, no label

Would you mind telling me what Cmax value was observed for `CC(C)c1cc(Oc2c(Cl)cc(-n3nc(C#N)c(=O)[nH]c3=O)cc2Cl)n[nH]c1=O` ?
647

====

- MEASUREMENT PROTOCOL: Resmetirom exposure parameters by dose, quartile and body weight
- Format: in vivo, human
- RUN PARAMETERS: human, in vivo, oral, 80 mg; <80 kg; read-out: Cmax,ss Median
- Protocol: Various body weight cutoffs for dosing were evaluated.
PROPERTY MEASURED: Cmax (ng/mL)
// units = ng/mL; emit number, no label

Would you mind telling me what Cmax value was observed for `CC(C)c1cc(Oc2c(Cl)cc(-n3nc(C#N)c(=O)[nH]c3=O)cc2Cl)n[nH]c1=O` ?
1140
